Measured relative viability, listed per entry for reference.
# Test system: PC-3 [JPC-3]
# Run Description: relative viability (nuclei count vs DMSO), 5 days (fraction); higher = more cells survive
# Settings: first compound 4 µM
Lab note: jot the number down without any unit.

Reference set, count: 3
INSERT INTO measurements (compound, tested_target, readout, meas_value) VALUES
  ('C[C@@H]1CN(CC(=O)Nc2ccc3c(c2)Cc2cccc(-c4cc(=O)cc(N5CCOCC5)o4)c2S3)C[C@H](C)O1 + COc1cccc2cc(-c3nc([C@H]4CC[C@H](C(=O)O)CC4)n4ncnc(N)c34)[nH]c12 [OSI-027] (partner 0.5 µM)', 'PC-3 [JPC-3]', 'relative viability', 0.577),
  ('C[C@@H]1CN(CC(=O)Nc2ccc3c(c2)Cc2cccc(-c4cc(=O)cc(N5CCOCC5)o4)c2S3)C[C@H](C)O1 + C[C@]1(O)C[C@@H](c2nc(-c3ccc4ccc(-c5ccccc5)nc4c3)c3c(N)nccn32)C1 [Linsitinib] (partner 1 µM)', 'PC-3 [JPC-3]', 'relative viability', 0.868),
  ('Clc1ccc(Nc2nnc(Cc3ccncc3)c3ccccc23)cc1 [Vatalanib] + CS(=O)(=O)N1CCN(Cc2cc3nc(-c4cccc5[nH]ncc45)nc(N4CCOCC4)c3s2)CC1 [Pictilisib] (partner 1 µM)', 'PC-3 [JPC-3]', 'relative viability', 0.752);

With those in mind, consider the next compound.
The recorded relative viability for entry COc1cc(N2CCC(C(N)=O)CC2)ccc1Nc1nc(N)c(Cl)c(Nc2ccccc2S(=O)(=O)C(C)C)n1 [HG-5-88-01] + CS(=O)(=O)CCNCc1ccc(-c2ccc3ncnc(Nc4ccc(OCc5cccc(F)c5)c(Cl)c4)c3c2)o1 [Lapatinib] (partner 2 µM) equals 0.25
